Data origin: the supplement of paper PMC11368000

# Test system: 1535 (donor line of iPSC-derived cardiomyocytes)
# testDescription: POD (EC05) for decrease in beat frequency (negative chronotrope) vs vehicle; higher = less potent (higher point of departure)
# measurementConditions: exposure time: 90 min
POD vs vehicle for assorted molecules
observationType: POD vs vehicle (µM)

1) O=C(O)C(F)(F)C(F)(F)C(F)(F)C(F)(F)C(F)(F)C(F)(F)C(F)(F)F; 41.8
2) N=C(N)C(F)(F)C(F)(F)C(F)(F)C(F)(F)C(F)(F)C(F)(F)C(F)(F)F; 2.86
3) O=C(O)C(F)(F)C(F)(F)C(F)(F)C(F)(F)C(F)(F)C(F)(F)C(F)(F)C(F)(F)Cl; 39.9

---

# Tested on: 20084 (donor line of iPSC-derived cardiomyocytes)
# testDescription: POD (EC05) for increase in Ca2+ transient decay-to-rise ratio (QT prolongation) vs vehicle; higher = less potent (higher point of departure)
# measurementConditions: exposure time: 90 min
observationType: POD vs vehicle

1) OCCC(F)(F)C(F)(F)C(F)(F)C(F)(F)C(F)(F)C(F)(F)C(F)(F)C(F)(F)F [8:2 Fluorotelomer alcohol]; > 100 µM
2) O=S(=O)([O-])C(F)(F)C(F)(F)C(F)(F)C(F)(F)F.[K+] [Potassium_perfluorobutanesulfonate]; > 100 µM
3) O=C(O)C(F)(F)OC(F)(F)C(F)(F)OC(F)(F)F [Perfluoro-3,6-dioxaheptanoic_acid]; > 100 µM
4) NC(O)(C(F)(F)F)C(F)(F)F [2-Aminohexafluoropropan-2-ol]; > 100 µM
5) OCC(F)(F)C(F)(F)C(F)(F)C(F)(F)C(F)(F)C(F)(F)F [6:1 Fluorotelomer alcohol]; > 100 µM
6) O=C(O)C=CC(F)(C(F)(F)F)C(F)(F)F [3-(Perfluoroisopropyl)-2-propenoic_acid]; > 100 µM
7) O=C(O)C(F)(F)OC(F)(F)C(F)(F)OC(F)(F)C(=O)O [Perfluoro-3,6-dioxaoctane-1,8-dioic_acid]; > 100 µM

---

# Test system: 1565 (donor line of iPSC-derived cardiomyocytes)
# testDescription: POD (EC05) for decrease in beat frequency (negative chronotrope) vs vehicle; higher = less potent (higher point of departure)
# measurementConditions: exposure time: 90 min
POD vs vehicle for assorted compounds
observationType: POD vs vehicle

1. O=C(O)C(F)(F)C(F)(F)OC(F)(F)F; > 100 µM
2. O=C(O)C(F)(F)C(F)(F)C(F)(F)C(F)(F)C(F)(F)C(F)(F)C(F)(F)C(F)(F)F; > 100 µM
3. O=C(O)C(F)(F)C(F)(F)C(F)(F)C(F)(F)C(F)(F)C(F)(F)C(F)(F)C(F)(F)C(F)(F)C(F)(F)F; > 100 µM
4. OCC(F)(F)C(F)(F)C(F)(F)C(F)(F)C(F)(F)C(F)F; 20.3 µM
5. O=S(=O)(O)CCC(F)(F)C(F)(F)C(F)(F)C(F)(F)C(F)(F)C(F)(F)C(F)(F)C(F)(F)F; 9.96 µM
6. O=C(O)C(F)(F)C(F)(F)C(F)(F)C(F)(F)C(F)(F)F; > 100 µM
7. OCCC(F)(F)C(F)(F)C(F)(F)C(F)(F)C(F)(F)C(F)(F)F; > 100 µM
8. O=C([O-])C(F)(F)C(F)(F)C(F)(F)C(F)(F)C(F)(F)C(F)(F)C(F)(F)F.[NH4+] [Ammonium_perfluorooctanoate]; > 100 µM
9. CC(O)C(F)(F)C(F)(F)F (stereo unspecified); > 100 µM
10. O=C(O)C(F)(F)C(F)(F)C(F)(F)OC(F)(F)F; > 100 µM
11. O=C(O)C(F)(F)C(F)(F)F; > 100 µM

---

POD vs vehicle for assorted compounds
# Tested on: 30145 (donor line of iPSC-derived cardiomyocytes)
# testDescription: POD (EC05) for increase in Ca2+ transient decay-to-rise ratio (QT prolongation) vs vehicle; higher = less potent (higher point of departure)
# measurementConditions: exposure time: 90 min
observationType: POD vs vehicle

1) NC(=O)C(F)(F)C(F)(F)C(F)(F)C(F)(F)C(N)=O [Octafluoroadipamide]; > 100 µM
2) OCC(F)(F)OC(F)(F)C(F)(F)OC(F)(F)C(F)(F)OC(F)(F)F; > 100 µM
3) O=P(O)(O)CCC(F)(F)C(F)(F)C(F)(F)C(F)(F)C(F)(F)C(F)(F)C(F)(F)C(F)(F)F; > 100 µM

---

# System: 1531 (donor line of iPSC-derived cardiomyocytes)
# testDescription: POD (EC05) for increase in Ca2+ transient decay-to-rise ratio (QT prolongation) vs vehicle; higher = less potent (higher point of departure)
# measurementConditions: exposure time: 90 min
observationType: POD vs vehicle

1) OCC(F)(F)C(F)(F)C(F)(F)F; > 100 µM
2) OCCC(F)(F)C(F)(F)C(F)(F)C(F)(F)C(F)(F)C(F)(F)C(F)(F)C(F)(F)F; > 100 µM
3) O=C(O)CCC(F)(F)C(F)(F)C(F)(F)C(F)(F)C(F)(F)C(F)(F)C(F)(F)F; 25.4 µM
4) O=C(O)C(F)(F)C(F)(F)C(F)(F)C(F)(F)C(F)(F)C(F)(F)C(F)(F)C(F)(F)C(F)(F)C(F)(F)F; > 100 µM
5) O=C(O)C(F)(F)C(F)(F)C(F)(F)C(F)(F)F; > 100 µM
6) O=S(=O)(O)C(F)(F)C(F)(F)C(F)(F)C(F)(F)C(F)(F)C(F)(F)C(F)(F)C(F)(F)F; > 100 µM
7) O=C(O)C(F)(F)C(F)(F)F; 0.307 µM

---

# Test system: 1392 (donor line of iPSC-derived cardiomyocytes)
# testDescription: POD (EC05) for decrease in beat frequency (negative chronotrope) vs vehicle; higher = less potent (higher point of departure)
# measurementConditions: exposure time: 90 min
observationType: POD vs vehicle

1. NC(=O)C(F)(F)C(F)(F)C(F)(F)C(F)(F)C(N)=O [Octafluoroadipamide]; > 100 µM
2. O=C(O)CCC(F)(F)C(F)(F)C(F)(F)C(F)(F)C(F)(F)F [2H,2H,3H,3H-Perfluorooctanoic_acid]; 20.4 µM
3. O=C(CC(=O)C(F)(F)C(F)(F)F)C(F)(F)F [3H,3H-Perfluoro-2,4-hexanedione]; > 100 µM
4. CC(O)C(F)(F)C(F)(F)F (centres undefined) [1-Pentafluoroethylethanol]; > 100 µM

---

# System: 1118 (donor line of iPSC-derived cardiomyocytes)
# testDescription: POD (EC95) for loss of peak frequency (asystole) vs vehicle; higher = less potent (higher point of departure)
# measurementConditions: exposure time: 90 min
observationType: POD vs vehicle (µM)

1. NC(=O)C(F)(F)C(F)(F)C(F)(F)C(F)(F)F [Nonafluoropentanamide]; 84.9
2. O=C(O)C(F)(F)C(F)(F)C(F)(F)C(F)(F)C(F)(F)C(F)(F)C(F)(F)C(F)(F)Cl [9-Chloro-perfluorononanoic_acid]; 84.3
3. O=C(CC(=O)C(F)(F)C(F)(F)F)C(F)(F)F [3H,3H-Perfluoro-2,4-hexanedione]; 80.5
4. O=C(O)CCC(F)(F)C(F)(F)C(F)(F)C(F)(F)C(F)(F)C(F)(F)C(F)(F)F [3-Perfluoroheptylpropanoic_acid]; 59.8
5. O=C(O)C(F)(F)OC(F)(F)C(F)(F)OC(F)(F)C(F)(F)OC(F)(F)C(F)(F)C(F)(F)C(F)(F)F [Perfluoro-3,6,9-trioxatridecanoic_acid]; 63.7
6. NS(=O)(=O)C(F)(F)C(F)(F)C(F)(F)C(F)(F)C(F)(F)C(F)(F)F [Perfluorohexanesulfonamide]; 7.84
7. O=C(O)C(F)(F)C(F)(F)C(F)(F)C(F)(F)C(F)(F)C(F)(F)C(F)(F)C(F)(F)F [Perfluorononanoic_acid]; 99.4
8. OCC(O)CC(F)(F)C(F)(F)C(F)(F)C(F)(F)C(F)(F)C(F)(F)C(F)(F)C(F)(F)F (centres undefined) [1-(Perfluorofluorooctyl)propane-2,3-diol]; 1.19
9. OCC(F)(F)C(F)(F)C(F)(F)C(F)(F)C(F)(F)C(F)F [Dodecafluoroheptanol]; 7.54
10. OCCC(F)(F)C(F)(F)C(F)(F)C(F)(F)F [4:2 Fluorotelomer alcohol]; 89.1
11. OCC(F)(F)C(F)(F)C(F)(F)C(F)F [1H,1H,5H-Perfluoropentanol]; 86.3
12. O=C(O)C(F)(F)C(F)(F)C(F)(F)C(F)(F)C(F)(F)C(F)(F)C(F)(F)C(F)(F)C(F)(F)F [Perfluorodecanoic_acid]; 9.5
13. O=C(O)CCC(F)(F)C(F)(F)C(F)(F)C(F)(F)C(F)(F)F [2H,2H,3H,3H-Perfluorooctanoic_acid]; 67.4

---

# Tested on: 11235 (donor line of iPSC-derived cardiomyocytes)
# testDescription: POD (EC95) for loss of peak frequency (asystole) vs vehicle; higher = less potent (higher point of departure)
# measurementConditions: exposure time: 90 min
observationType: POD vs vehicle

1. O=S(=O)(O)C(F)(F)C(F)(F)C(F)(F)C(F)(F)C(F)(F)C(F)(F)C(F)(F)C(F)(F)F; 12.5 µM
2. OCC(F)(F)OC(F)(F)C(F)(F)OC(F)(F)C(F)(F)OC(F)(F)F; > 100 µM
3. O=S(=O)(O)C(F)(F)C(F)(F)C(F)(F)C(F)(F)C(F)(F)C(F)(F)F; > 100 µM
